Would you mind telling me the reported target mRNA knockdown of each entry?
# Applied Conditions: siRNA; also: test system not given here
HELM strings list units from the 5' end as sugar, base in round brackets, then linkage (d deoxyribose, r ribose, m 2'-O-methyl, p phosphodiester). Strings are as the collection lists them, not checked against the first reports. ss, as = sense and antisense strand; [fl2r] = 2'-fluoro
Give bare numbers, in %.

Please give the measured target mRNA knockdown for this substance: "RNA1{m(U)p.r(A)p.r(A)p.r(A)p.r(G)p.r(C)p.r(U)p.r(G)p.r(G)p.r(A)p.r(A)p.r(A)p.r(G)p.r(G)p.r(G)p.r(A)p.r(C)p.r(G)p.r(G)p.r(T)p.r(T)}|RNA2{r(C)p.r(C)p.r(G)p.r(U)p.r(C)p.r(C)p.r(C)p.r(U)p.r(U)p.r(U)p.r(C)p.r(C)p.r(A)p.r(G)p.r(C)p.r(U)p.r(U)p.m(U)p.r(A)p.r(T)p.r(T)}$$$RNA1{StrandType:ss}|RNA2{StrandType:as}$" 67

Could you tell me which target mRNA knockdown is on file for "RNA1{r(G)p.r(U)p.r(U)p.[fl2r](C)p.r(A)p.r(C)p.r(G)p.r(U)p.r(C)p.r(C)p.[fl2r](U)p.r(A)p.r(C)p.r(C)p.r(C)p.r(C)p.r(U)p.r(U)p.r(U)p.r(T)p.r(T)}|RNA2{r(A)p.r(A)p.r(A)p.r(G)p.r(G)p.r(G)p.r(G)p.[fl2r](U)p.r(A)p.r(G)p.r(G)p.r(A)p.r(C)p.r(G)p.[fl2r](U)p.r(G)p.r(A)p.r(A)p.r(C)p.r(T)p.r(T)}$$$RNA1{StrandType:ss}|RNA2{StrandType:as}$" ? 65

New cases:
Look up target mRNA knockdown: "RNA1{r(U)p.r(C)p.r(C)p.m(U)p.r(A)p.r(G)p.r(C)p.r(U)p.r(G)p.r(U)p.r(C)p.r(U)p.r(U)p.r(G)p.r(U)p.r(C)p.r(C)p.r(C)p.r(U)p.r(T)p.r(T)}|RNA2{r(A)p.r(G)p.r(G)p.r(G)p.r(A)p.r(C)p.r(A)p.r(A)p.r(G)p.r(A)p.r(C)p.r(A)p.r(G)p.r(C)p.m(U)p.r(A)p.r(G)p.r(G)p.r(A)p.r(T)p.r(T)}$$$RNA1{StrandType:ss}|RNA2{StrandType:as}$" 71

The origin of these recorded values is the OligoGym collection.
